Exercise: state measured TGI for each of the molecules provided.
# System: MDA-MB-468 breast
# assay_overview: NCI tumour cell line growth inhibition, 48 h
Numbers only, in µM.

Cc1ccc(NS(=O)(=O)c2ccc(-c3cnc(C4CC4)o3)cc2)cc1: 5.83
ClCCN(CCCl)Cc1ccc(Nc2ccnc3cc(Cl)ccc23)cc1: 2.99
COc1cnc2c(c1)C(=O)c1c-2n(CCCn2ccnc2)c(=O)c2cc(OC)c(OC)cc12: 0.358
O=C1C(=O)c2ccc(Br)cc2-c2cc(Br)ccc21: 1.43
COc1ccc(-c2cc3c4c(nc5ccccc5c4c2)CC(c2cc(OC)c(OC)c(OC)c2)O3)cc1 (stereo not drawn): 10.5

For every item in the list below, what is its measured TGI?
1. COc1ccc(OC)c(/C=C/[N+](=O)[O-])c1
2. O=C1C=C(SCCO)C(=O)c2ccccc21
3. CN1CCN(c2ccc(Nc3nc(NCCCNS(=O)(=O)c4cccc5ccccc45)c4sccc4n3)cc2)CC1
4. COc1cc(-c2c3c(cn2S(=O)(=O)c2ccccc2)-c2nc(N)sc2CC3)cc(OC)c1OC
5. O=C1Nc2ccc(Cl)cc2/C1=C\c1c(-c2ccc(F)cc2)nc2ccccn12
6. O=C(CC12CC3CC(CC(C3)C1)C2)NCCOCCOCCNC(=O)c1cc2c(o1)C(=O)c1ccccc1C2=O
7. Cc1nc2sc(C(=O)Nc3cccc4ccccc34)c(N)c2cc1C(C)O (stereo not drawn)

Result:
2.68
3.46
6.23
22.2
6.19
3.3
0.416

* * *

# Test system: MDA-MB-468 breast
# assay_overview: NCI tumour cell line growth inhibition, 48 h; in the data active means GI50 below about 0.43 µM; inactive means the rest
Return exactly one item of active, inactive

Reference set, count: 3
CCCOC(=O)N[C@H]1CCc2c(Br)c(OC)c(OC)c(OC)c2-c2ccc(SC)c(=O)cc21: active
CS(=O)(=O)c1nccc(-c2c(-c3cccc(OCc4ccc(F)cc4)c3)nc3sccn23)n1: inactive
COC1=CC(c2ccc[nH]2)=N/C1=C\c1[nH]c(C)c(C(=O)CCC(=O)Oc2ccc3c(c2)CCC2C3CC[C@]3(C)C(=O)CC[C@@H]23)c1C (some centres not stated): inactive

Task: Kindly provide the recorded test outcome for the following compound: `O=C1C(=O)c2ccc(Br)cc2-c2cc(Br)ccc21`
Result: inactive

Task: Also `c1ccc2c(c1)O[As](O[As]1Oc3ccccc3O1)O2` , if possible.
Result: inactive

Task: Also COCCNCC(O)Cn1c2ccc(Cl)cc2c2cc(Cl)ccc21 (configuration not stated) , if possible.
Result: inactive

Task: Also `CN(C)CCCNC(=O)c1cc(NC(=O)c2cc(NC(=O)c3ccc(/C=C/c4ccccc4)cc3)cn2C)cn1C` , if possible.
Result: inactive
